Target Desc: T1, UL128 expressed from MVA in BHK-21 cells (human cytomegalovirus, UniProt P16837 28-171)
T1 construct: whole, on cells
T1 sequence: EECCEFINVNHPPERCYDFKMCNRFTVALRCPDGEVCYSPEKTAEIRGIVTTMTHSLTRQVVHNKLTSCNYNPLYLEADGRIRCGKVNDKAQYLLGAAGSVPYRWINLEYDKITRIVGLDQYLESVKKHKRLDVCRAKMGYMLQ
Test Description: intracellular FC, MVA-infected BHK-21

| Binder | binding result |
| --- | --- |
| 54E11 (antibody, V domains shown, also called NAb 54E11) VH: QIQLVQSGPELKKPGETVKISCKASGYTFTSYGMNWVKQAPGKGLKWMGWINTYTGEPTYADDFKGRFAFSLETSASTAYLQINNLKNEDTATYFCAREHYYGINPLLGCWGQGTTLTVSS VL: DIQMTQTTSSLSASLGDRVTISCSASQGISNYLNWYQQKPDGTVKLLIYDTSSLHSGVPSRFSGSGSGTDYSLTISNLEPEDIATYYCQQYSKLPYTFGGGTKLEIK | no binding |
| 62-100 (antibody, V domains shown, also called NAb 62-100) VH: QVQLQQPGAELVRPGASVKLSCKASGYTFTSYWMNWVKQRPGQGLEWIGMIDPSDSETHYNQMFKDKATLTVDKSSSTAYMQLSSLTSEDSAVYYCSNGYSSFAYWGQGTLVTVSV VL: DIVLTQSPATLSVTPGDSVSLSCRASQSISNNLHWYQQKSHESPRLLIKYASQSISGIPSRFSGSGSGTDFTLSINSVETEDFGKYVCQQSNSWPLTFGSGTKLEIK | no binding |
